system: Protein cereblon/Androgen receptor (Homo sapiens), P10275+Q96SW2 [UNDEFINED MUTATION]; test: PROTAC activity at AR-V7/CRBN in human 22Rv1 cells assessed as induction of AR-V7 degradation at 1 uM incubated for 24 hrs by Western blot analysis relative to control; type: cell-based; conditions: CWR22R
Sequence (P10275 whole entry, looked up, change not shown): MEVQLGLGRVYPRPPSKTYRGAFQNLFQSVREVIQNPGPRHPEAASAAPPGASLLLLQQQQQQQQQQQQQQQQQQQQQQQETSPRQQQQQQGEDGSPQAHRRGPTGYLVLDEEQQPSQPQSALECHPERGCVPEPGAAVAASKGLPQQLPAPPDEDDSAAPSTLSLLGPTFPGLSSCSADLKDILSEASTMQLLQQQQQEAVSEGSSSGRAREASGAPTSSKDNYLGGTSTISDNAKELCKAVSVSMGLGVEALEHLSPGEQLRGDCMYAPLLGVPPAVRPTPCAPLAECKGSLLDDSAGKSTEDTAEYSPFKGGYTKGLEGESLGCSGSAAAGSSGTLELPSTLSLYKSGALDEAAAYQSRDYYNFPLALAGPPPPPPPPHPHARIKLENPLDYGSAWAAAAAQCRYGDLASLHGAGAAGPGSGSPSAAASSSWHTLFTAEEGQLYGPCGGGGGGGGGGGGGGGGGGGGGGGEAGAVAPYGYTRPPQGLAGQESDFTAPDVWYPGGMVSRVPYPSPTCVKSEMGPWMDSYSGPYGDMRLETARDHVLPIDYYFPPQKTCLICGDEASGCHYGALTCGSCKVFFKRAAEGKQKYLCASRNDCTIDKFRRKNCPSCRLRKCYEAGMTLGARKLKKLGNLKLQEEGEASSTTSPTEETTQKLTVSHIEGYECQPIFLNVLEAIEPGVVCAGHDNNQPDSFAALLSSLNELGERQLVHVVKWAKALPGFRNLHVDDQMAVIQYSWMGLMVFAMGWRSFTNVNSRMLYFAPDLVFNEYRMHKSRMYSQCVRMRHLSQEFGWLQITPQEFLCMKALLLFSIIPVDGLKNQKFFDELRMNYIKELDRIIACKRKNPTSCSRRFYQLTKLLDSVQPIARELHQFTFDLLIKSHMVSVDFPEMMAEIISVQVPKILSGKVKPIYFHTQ
Sequence (Q96SW2 whole entry, looked up, change not shown): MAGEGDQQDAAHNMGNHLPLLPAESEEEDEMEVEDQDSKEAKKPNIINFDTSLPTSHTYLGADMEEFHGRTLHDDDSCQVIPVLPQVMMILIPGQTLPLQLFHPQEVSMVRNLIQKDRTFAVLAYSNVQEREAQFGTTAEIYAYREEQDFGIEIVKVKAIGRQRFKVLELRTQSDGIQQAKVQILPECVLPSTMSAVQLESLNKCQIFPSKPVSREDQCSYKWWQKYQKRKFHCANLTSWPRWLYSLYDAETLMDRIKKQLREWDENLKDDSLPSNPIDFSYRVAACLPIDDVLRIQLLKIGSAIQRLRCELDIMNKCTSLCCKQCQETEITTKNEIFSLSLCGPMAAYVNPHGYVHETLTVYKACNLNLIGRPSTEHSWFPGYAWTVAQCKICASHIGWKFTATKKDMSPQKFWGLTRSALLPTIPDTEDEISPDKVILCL
So basically, if Activity comes in under 70% it's yes, and if it's 70% or more it's no.

>  <Molecule>
CC(C)(c1ccc(OCCNc2cccc3c2C(=O)N(C2CCC(=O)NC2=O)C3=O)cc1)c1ccc(OCC(O)CCl)cc1 (stereo not given)

>  <Classification>
no

$$$$
>  <Molecule>
CC(C)(c1ccc(OCC(=O)N2CCC(CNc3ccc4c(c3)C(=O)N(C3CCC(=O)NC3=O)C4=O)CC2)cc1)c1ccc(OCC(O)CCl)cc1 (stereo not given)

>  <Classification>
yes

$$$$
>  <Molecule>
CC(C)(c1ccc(OCC(=O)NCCCNc2ccc3c(c2)C(=O)N(C2CCC(=O)NC2=O)C3=O)cc1)c1ccc(OCC(O)CCl)cc1 (stereo not given)

>  <Classification>
yes

$$$$
>  <Molecule>
CC(C)(c1ccc(OCCNc2cccc3c2C(=O)N(C2CCC(=O)NC2=O)C3=O)cc1)c1ccc(OCc2cccc(N3CCOCC3)n2)cc1 (stereo not given)

>  <Classification>
no

$$$$

Bench note: check whether CC(C)(c1ccc(OCC(=O)NCCCNc2cccc3c2C(=O)N(C2CCC(=O)NC2=O)C3=O)cc1)c1ccc(OCc2cccc(N3CCOCC3)n2)cc1 (stereo not given) shows Activity below 70%
yes

Bench note: check whether CC(C)(c1ccc(OCC(=O)NC2CN(c3ccc4c(c3)C(=O)N(C3CCC(=O)NC3=O)C4=O)C2)cc1)c1ccc(OCC(O)CCl)cc1 (stereo not given) shows Activity below 70%
yes

Bench note: check whether CC(C)(c1ccc(OCC(=O)NCCCCCNc2ccc3c(c2)C(=O)N(C2CCC(=O)NC2=O)C3=O)cc1)c1ccc(OCC(O)CCl)cc1 (stereo not given) shows Activity below 70%
yes

Bench note: check whether CC(C)(c1ccc(OCC(=O)NCCCCNc2ccc3c(c2)C(=O)N(C2CCC(=O)NC2=O)C3=O)cc1)c1ccc(OCC(O)CCl)cc1 (stereo not given) shows Activity below 70%
yes

Bench note: check whether CC(C)(c1ccc(OCC(=O)NCCNc2ccc3c(c2)C(=O)N(C2CCC(=O)NC2=O)C3=O)cc1)c1ccc(OCC(O)CCl)cc1 (stereo not given) shows Activity below 70%
yes

* * *

experiment: Antiproliferative activity against human MCF-10A cells assessed as cell viability incubated for 4 days by CCK-8 assay; assay type: toxicity, cell-based
Reported Metric: IC50 at 4 days

Specify reported IC50 at 4 days for the compound shown: CC(C)(c1ccc(OCCNc2cccc3c2C(=O)N(C2CCC(=O)NC2=O)C3=O)cc1)c1ccc(OCc2cccc(N3CCOCC3)n2)cc1 (stereo unspecified)
> 80 µM

* * *

assay: Volume of distribution at steady state in Sprague-Dawley rat 2 mg/kg, iv by LC-MS/MS analysis; type: ADME, organism-based; settings: in vivo, read-out: Vdss
Reported Metric: Vd (L/kg)
// units = L/kg; emit number, no label

Specify reported Vd for the molecule shown: CC(C)(c1ccc(OCCNc2cccc3c2C(=O)N(C2CCC(=O)NC2=O)C3=O)cc1)c1ccc(OCc2cccc(N3CCOCC3)n2)cc1 (stereo unspecified)
0.571

* * *

target: Protein cereblon/Androgen receptor (Homo sapiens, UniProt P10275+Q96SW2); assay: PROTAC activity at full length Androgen receptor/CRBN in human 22Rv1 cells assessed as induction of full length Androgen receptor degradation at 5 uM incubated for 24 hrs by Western blot analysis relative to control; type: cell-based
Sequence (P10275 whole entry, looked up): as the sequence (P10275 whole entry, looked up, change not shown) above
Sequence (Q96SW2 whole entry, looked up): as the sequence (Q96SW2 whole entry, looked up, change not shown) above
Listed compounds paired with reported Activity
// units = %; emit number, no label

>  <Compound>
CC(C)(c1ccc(OCC(=O)NC2CCN(c3cccc4c3C(=O)N(C3CCC(=O)NC3=O)C4=O)CC2)cc1)c1ccc(OCc2cccc(N3CCOCC3)n2)cc1 (centres undefined)

>  <Activity / %>
28.3

$$$$

Now, please, on to the next compound.
Specify reported Activity for the compound shown: CC(C)(c1ccc(OCC(=O)NCCCNc2cccc3c2C(=O)N(C2CCC(=O)NC2=O)C3=O)cc1)c1ccc(OCc2cccc(N3CCOCC3)n2)cc1 (centres undefined)
78.6

* * *

assay: Clearance in Sprague-Dawley rat 2 mg/kg, iv by LC-MS/MS analysis; assay type: ADME, organism-based; conditions: in vivo
Reported Metric: clearance

Specify reported clearance for the molecule shown: CC(C)(c1ccc(OCCNc2cccc3c2C(=O)N(C2CCC(=O)NC2=O)C3=O)cc1)c1ccc(OCc2cccc(N3CCOCC3)n2)cc1 (stereo unspecified)
15.1 mL/min/kg

* * *

Listed molecules paired with reported Activity
system: Protein cereblon/Androgen receptor (Homo sapiens), P10275+Q96SW2 [UNDEFINED MUTATION]; test: PROTAC activity at AR-V7/CRBN in human 22Rv1 cells assessed as induction of AR-V7 degradation at 1 uM incubated for 24 hrs by Western blot analysis relative to control; type: cell-based; conditions: CWR22R
// units = %; emit number, no label

Consider the reported Activity for these molecules:
>  <Molecule>
CC(C)(c1ccc(OCCCNc2cccc3c2C(=O)N(C2CCC(=O)NC2=O)C3=O)cc1)c1ccc(OCC(O)CCl)cc1 (centres undefined)

>  <Observed Value>
58.7

$$$$
>  <Molecule>
CC(C)(c1ccc(OCC(=O)NCCCCCCNc2ccc3c(c2)C(=O)N(C2CCC(=O)NC2=O)C3=O)cc1)c1ccc(OCC(O)CCl)cc1 (centres undefined)

>  <Observed Value>
32.2

$$$$

Now, please, on to the next molecule.
Specify reported Activity for the molecule shown: CC(C)(c1ccc(OCCCCNc2ccc3c(c2)C(=O)N(C2CCC(=O)NC2=O)C3=O)cc1)c1ccc(OCC(O)CCl)cc1 (centres undefined)
55.1

* * *

target: Protein cereblon/Androgen receptor (Homo sapiens, UniProt P10275+Q96SW2); test: PROTAC activity at full length Androgen receptor/CRBN in human 22Rv1 cells assessed as induction of full length Androgen receptor degradation at 1 uM incubated for 24 hrs by Western blot analysis relative to control; type: cell-based
Listed molecules paired with reported Activity
// units = %; emit number, no label

Consider the reported Activity for these molecules:
>  <Molecule>
CC(C)(c1ccc(OCCCCNc2ccc3c(c2)C(=O)N(C2CCC(=O)NC2=O)C3=O)cc1)c1ccc(OCC(O)CCl)cc1 (stereo not given)

>  <Study System>
Protein cereblon/Androgen receptor (Homo sapiens, UniProt P10275+Q96SW2)

>  <Observed Value>
88.1

$$$$
>  <Molecule>
CC(C)(c1ccc(OCCNc2cccc3c2C(=O)N(C2CCC(=O)NC2=O)C3=O)cc1)c1ccc(OCC(O)CCl)cc1 (stereo not given)

>  <Study System>
Protein cereblon/Androgen receptor (Homo sapiens, UniProt P10275+Q96SW2)

>  <Observed Value>
82.5

$$$$
>  <Molecule>
CC(C)(c1ccc(OCCNc2cccc3c2C(=O)N(C2CCC(=O)NC2=O)C3=O)cc1)c1ccc(OCc2cccc(N3CCOCC3)n2)cc1 (stereo not given)

>  <Study System>
Protein cereblon/Androgen receptor (Homo sapiens, UniProt P10275+Q96SW2)

>  <Observed Value>
89.2

$$$$

Tell me Activity of CC(C)(c1ccc(OCC(=O)NCCCNc2cccc3c2C(=O)N(C2CCC(=O)NC2=O)C3=O)cc1)c1ccc(OCc2cccc(N3CCOCC3)n2)cc1 (stereo not given) when tested on Protein cereblon/Androgen receptor (Homo sapiens, UniProt P10275+Q96SW2).
22.1

Tell me Activity of CC(C)(c1ccc(OCC(=O)NCCCNc2cccc3c2C(=O)N(C2CCC(=O)NC2=O)C3=O)cc1)c1ccc(OCC(O)CCl)cc1 (stereo not given) when tested on Protein cereblon/Androgen receptor (Homo sapiens, UniProt P10275+Q96SW2).
88.1

* * *

tested on: Protein cereblon/Androgen receptor (Homo sapiens), P10275+Q96SW2 [UNDEFINED MUTATION]; assay: PROTAC activity at AR-V7/CRBN in human 22Rv1 cells assessed as induction of AR-V7 degradation at 5 uM incubated for 24 hrs by Western blot analysis relative to control; assay type: cell-based; conditions: CWR22R
Listed compounds paired with reported Activity

Consider the reported Activity for these compounds:
>  <Compound>
CC(C)(c1ccc(OCC(=O)NCCCCCCNc2ccc3c(c2)C(=O)N(C2CCC(=O)NC2=O)C3=O)cc1)c1ccc(OCC(O)CCl)cc1 (stereo not given)

>  <Activity>
< 10%

$$$$
>  <Compound>
CC(C)(c1ccc(OCC(=O)NCCNc2ccc3c(c2)C(=O)N(C2CCC(=O)NC2=O)C3=O)cc1)c1ccc(OCC(O)CCl)cc1 (stereo not given)

>  <Activity>
< 10%

$$$$
>  <Compound>
CC(C)(c1ccc(OCC(=O)N2CCC(N3CCN(c4ccc5c(c4)C(=O)N(C4CCC(=O)NC4=O)C5=O)CC3)CC2)cc1)c1ccc(OCC(O)CCl)cc1 (stereo not given)

>  <Activity>
< 10%

$$$$

Specify reported Activity for the compound shown: CC(C)(c1ccc(OCC(=O)NCCOCCOCCOCCNc2cccc3c2C(=O)N(C2CCC(=O)NC2=O)C3=O)cc1)c1ccc(OCc2cccc(N3CCOCC3)n2)cc1 (stereo not given)
40%

Specify reported Activity for the compound shown: CC(C)(c1ccc(OCC(=O)NC2CN(c3ccc4c(c3)C(=O)N(C3CCC(=O)NC3=O)C4=O)C2)cc1)c1ccc(OCC(O)CCl)cc1 (stereo not given)
69.8%

Specify reported Activity for the compound shown: CC(C)(c1ccc(OCCCCCCNc2cccc3c2C(=O)N(C2CCC(=O)NC2=O)C3=O)cc1)c1ccc(OCC(O)CCl)cc1 (stereo not given)
93%

Specify reported Activity for the compound shown: CC(C)(c1ccc(OCC(=O)NC2CCN(c3cccc4c3C(=O)N(C3CCC(=O)NC3=O)C4=O)CC2)cc1)c1ccc(OCc2cccc(N3CCOCC3)n2)cc1 (stereo not given)
48.7%

Specify reported Activity for the compound shown: CC(C)(c1ccc(OCC(=O)N2CCC(CNc3ccc4c(c3)C(=O)N(C3CCC(=O)NC3=O)C4=O)CC2)cc1)c1ccc(OCC(O)CCl)cc1 (stereo not given)
79.9%

Specify reported Activity for the compound shown: CC(C)(c1ccc(OC[C@H](O)CO)cc1)c1ccc(OC[C@H](O)CCl)cc1
< 10%

Specify reported Activity for the compound shown: CC(C)(c1ccc(OCCCCNc2cccc3c2C(=O)N(C2CCC(=O)NC2=O)C3=O)cc1)c1ccc(OCC(O)CCl)cc1 (stereo not given)
89.3%

// data source = ChEMBL document CHEMBL6153032
